Data provenance is patent US10287255B2.

# subject-of-test: human recombinant HDAC6 (Homo sapiens)
# Construct: purchased Calbiochem 382180
# Sequence (Q9UBN7 1-1215): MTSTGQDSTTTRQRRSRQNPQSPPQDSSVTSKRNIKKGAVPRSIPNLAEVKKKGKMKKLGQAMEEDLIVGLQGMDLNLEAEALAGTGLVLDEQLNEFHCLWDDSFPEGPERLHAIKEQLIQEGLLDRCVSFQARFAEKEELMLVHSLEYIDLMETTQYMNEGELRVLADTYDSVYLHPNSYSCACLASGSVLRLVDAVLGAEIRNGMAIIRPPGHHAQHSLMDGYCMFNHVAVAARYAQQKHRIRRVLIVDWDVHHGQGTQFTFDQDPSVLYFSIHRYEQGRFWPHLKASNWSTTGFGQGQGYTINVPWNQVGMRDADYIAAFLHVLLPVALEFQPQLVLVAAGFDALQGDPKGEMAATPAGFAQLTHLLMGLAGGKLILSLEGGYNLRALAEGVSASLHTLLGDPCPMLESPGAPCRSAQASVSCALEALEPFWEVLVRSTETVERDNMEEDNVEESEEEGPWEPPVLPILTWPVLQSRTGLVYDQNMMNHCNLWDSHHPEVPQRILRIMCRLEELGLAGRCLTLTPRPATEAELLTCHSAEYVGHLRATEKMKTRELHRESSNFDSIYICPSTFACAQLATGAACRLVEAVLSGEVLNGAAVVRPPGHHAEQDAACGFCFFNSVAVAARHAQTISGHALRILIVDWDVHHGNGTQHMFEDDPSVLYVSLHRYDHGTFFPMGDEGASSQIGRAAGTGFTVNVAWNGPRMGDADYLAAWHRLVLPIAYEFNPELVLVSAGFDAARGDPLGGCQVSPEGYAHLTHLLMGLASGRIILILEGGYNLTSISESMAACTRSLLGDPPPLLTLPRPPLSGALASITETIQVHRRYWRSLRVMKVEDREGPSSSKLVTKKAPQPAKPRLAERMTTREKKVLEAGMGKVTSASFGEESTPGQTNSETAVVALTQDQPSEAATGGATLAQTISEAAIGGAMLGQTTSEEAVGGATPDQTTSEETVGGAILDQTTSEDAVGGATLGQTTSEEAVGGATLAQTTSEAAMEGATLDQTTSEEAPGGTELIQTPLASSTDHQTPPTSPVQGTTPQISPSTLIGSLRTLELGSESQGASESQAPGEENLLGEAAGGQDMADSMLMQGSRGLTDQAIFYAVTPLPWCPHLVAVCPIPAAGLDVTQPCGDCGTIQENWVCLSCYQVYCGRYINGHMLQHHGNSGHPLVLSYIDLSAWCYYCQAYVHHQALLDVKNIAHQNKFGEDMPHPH
# assay-remarks: HDAC6 enzyme activity inhibition assay (in vitro, fluorimetric)
# Type: biochemical
# condition: HDAC6 selectivity over HDAC1
experimental-endpoint: HDAC6 selectivity (fold)

Solved entries:
Q) For the molecule `C[C@@H]1CN(C(=O)c2ccc(C(=O)NO)cc2)C[C@H](C)N1Cc1ccccc1` , report HDAC6 selectivity (fold).
A) 20

Q) Identify measured HDAC6 selectivity (fold) associated with `C[C@@H]1CN(C(=O)c2cccc(-c3ccco3)c2)C[C@H](C)N1Cc1ccc(C(=O)NO)cc1`
A) 6

Q) State its HDAC6 selectivity (fold) for this molecule: `C[C@@H]1CN(Cc2ccc(-n3ccnc3)cc2)C[C@H](C)N1Cc1ccc(C(=O)NO)cc1`
A) 11

Q) Indicate the recorded HDAC6 selectivity (fold) value for this molecule: `C[C@@H]1CN(C(=O)Cc2cccc(-c3ccccc3)c2)C[C@H](C)N1Cc1ccc(C(=O)NO)cc1`
A) 57

Q) Kindly indicate its recorded HDAC6 selectivity (fold). Item: `CC(C)CC(=O)N1[C@H](C)CN(Cc2ccc(C(=O)NO)cc2)C[C@@H]1C`
A) 62

P. C[C@@H]1CN(Cc2ccc(C(=O)NO)cc2)C[C@H](C)N1Cc1cccc(CN2CCN(S(C)(=O)=O)CC2)c1
Q. COc1ccccc1NC(=O)N1C[C@@H](C)N(Cc2ccc(C(=O)NO)cc2)[C@@H](C)C1
R. C[C@@H]1CN(Cc2ccc(C(=O)NO)cc2)C[C@H](C)N1C(=O)CCc1ccccc1
S. C[C@@H]1CN(Cc2ccc(-c3cccs3)cc2)C[C@H](C)N1Cc1ccc(C(=O)NO)cc1
Q) Rank ascending by HDAC6 selectivity (fold). Response format: the labels, sorted as the prompt asks.
A) Q, S, R, P

P. Cc1ccccc1NC(=O)N1[C@H](C)CN(Cc2ccc(C(=O)NO)cc2)C[C@@H]1C
Q. C[C@@H]1CN(C(=O)c2ccccc2Cl)C[C@H](C)N1Cc1ccc(C(=O)NO)cc1
Q) Looking only at measured HDAC6 selectivity (fold), which entry is lower, P or Q ? Reply with the label of the item you choose.
A) Q

P. C[C@@H]1CN(Cc2ccc(C(=O)NO)cc2)C[C@H](C)N1C(=O)c1ccccc1-c1ccco1
Q. C[C@@H]1CN(Cc2cc3cc(C(=O)NO)ccc3o2)C[C@H](C)N1Cc1ccccc1
R. CC(=O)N1CCN(Cc2cccc(C(=O)N3[C@H](C)CN(Cc4ccc(C(=O)NO)cc4)C[C@@H]3C)c2)CC1
S. C[C@@H]1CN(Cc2ccc(C(=O)NO)cc2)C[C@H](C)N1Cc1cccc(-c2ccoc2)c1
T. C[C@@H]1CN(C(=O)c2ccccc2-c2ccco2)C[C@H](C)N1Cc1ccc(C(=O)NO)cc1
Q) Arrange by HDAC6 selectivity (fold), high to low. Order the labels as requested and give them as your answer.
A) S, P, R, T, Q

A. CCN1CCN(Cc2cccc(C(=O)N3[C@H](C)CN(Cc4ccc(C(=O)NO)cc4)C[C@@H]3C)c2)CC1
B. C[C@@H]1CN(C(=O)c2cccc(-c3cccnc3)c2)C[C@H](C)N1Cc1ccc(C(=O)NO)cc1
C. C[C@@H]1CN(Cc2ccc(C(=O)NO)cc2)C[C@H](C)N1Cc1cccc(CN2CCN(CC(F)(F)F)CC2)c1
Q) Rank descending by HDAC6 selectivity (fold). In your reply, arrange the labels in the requested order.
A) C, A, B
(C: 154 fold, A: 71 fold, B: 3 fold)

A. COc1cccc(CNC(=O)N2C[C@@H](C)N(Cc3ccc(C(=O)NO)cc3)[C@@H](C)C2)c1
B. C[C@@H]1CN(Cc2ccc(C(=O)NO)cc2)C[C@H](C)N1C(=O)c1cccc(CN2CCN(S(C)(=O)=O)CC2)c1
Q) Parameter metric = HDAC6 selectivity (fold). Return the lower-valued option from A and B . API: response body contains the label of the selected item.
A) A
